Please go through the items and note down their Tm (° C.) of peptide-c-Jun heterodimer.
Molecular target: T1, cJun bZIP (human, UniProt P05412 252-308, limits assumed)
T1 construct: Purified from a His-SUMO fusion with the tag cleaved off; also called c-Jun bZIP domain; 60 amino acid c-Jun bZIP construct
T1 chain: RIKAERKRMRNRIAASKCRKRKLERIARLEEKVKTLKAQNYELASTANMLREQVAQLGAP
Assay: CD thermal denaturation, peptide 5 µM and c-Jun 5 µM
Bridge positions count the residues as written; N and C are the ends.
Give bare numbers, in ° C..

Please review the following examples before continuing.
protein="Ac-KEAEDLVVEEDVLEEEIEQLEERNYALRKEIKDLQDQ-NH2 (Synthetic, NΔ19 CΔ7; also called linear form of 12/13) [HingeW variant peptide 12]" reported_result=56.5
protein="Ac-EAEELVVEEDVLEEEIEQLEEKNKALKDEIEDLY-NH2 (lactam 24-28 (inferred), Synthetic, NΔ20 CΔ10; also called cyclised form of 26/27) [HingeW variant peptide 27]" reported_result=52.5
protein="Ac-LVVEEDVLEEEIEQLEERNYALRKEIEDLQKQLEDL-NH2 (lactam (positions not given here); also: one i to i+4 K-to-D lactam, places not given here (K24/D28 or K31/D35), Synthetic, NΔ24 CΔ3; also called cyclised form of 9/10) [HingeW variant peptide 10]" reported_result=68.3
protein="Ac-EAEELVVEEDVLEEEIEQLEEKNKALKDEIEDLQKQY-NH2 (Synthetic, NΔ20 CΔ7; also called linear form of 20/21) [HingeW variant peptide 20]" reported_result=56.2

API: the following record is the query input.
In: # lookup: Tm (° C.) of peptide-c-Jun heterodimer of Ac-LARENEELEKEAEELVVEEDVLEEEIEQLEERNYALRKEIEDLQKQLEKL-NH2 (Synthetic, NΔ10 CΔ3; also called peptide 2) [HingeW peptide variant 2]
Out: 68.5
